Origin of measurements: paper PMC9130233

- run.description: Toxicokinetics (blood), 14-day inhalation study in Sprague Dawley rats
- Format: in vivo, rat
- protocol.conditions: male, Sprague-Dawley, rat, in vivo, inhaled or intranasal, 32.1 mg/kg/day, SD rat blood, inhalation, 32.1 mg/kg/day, Day 14, Male; read-out: Cmax, mean (SE)
assay.readout: Cmax (ng/mL)
Answer format: numeric, ng/mL implied, no suffix.

Look up Cmax for this compound: CCn1c(C(C)(C)Oc2ccc(F)cc2F)nc2cc(NC(=O)Cc3ccc(S(=O)(=O)CC)cc3)ccc21 885

====

- run.description: Toxicokinetics (blood), 14-day inhalation study in Sprague Dawley rats
- Type: in vivo, rat
- protocol.conditions: both sexes, Sprague Dawley, rat, blood, inhaled or intranasal, 10.8 mg/kg/day, SD rat blood, inhalation, 10.8 mg/kg/day, Day 1, Mean; read-out: AUC0-tlast, mean (SE)
assay.readout: AUC(0-t) (ng·h/mL)
Answer format: numeric, ng·h/mL implied, no suffix.

Look up AUC(0-t) for this compound: CCn1c(C(C)(C)Oc2ccc(F)cc2F)nc2cc(NC(=O)Cc3ccc(S(=O)(=O)CC)cc3)ccc21 5090

====

- run.description: Drug concentrations on day-8 in CS-model mice after 7-day intranasal treatment
- Format: in vivo
- protocol.conditions: C57BL/6, mouse, BAL fluid, other: intranasal; CS exposed mice, day-8, intranasal 50 µg/animal; read-out: Total concentration BAL fluid
assay.readout: concentration at 1 h

Look up concentration at 1 h for this compound: CCn1c(C(C)(C)Oc2ccc(F)cc2F)nc2cc(NC(=O)Cc3ccc(S(=O)(=O)CC)cc3)ccc21 [PCCR-1] 779 nM

====

- run.description: Toxicokinetics (blood), 14-day inhalation study in Sprague Dawley rats
- Format: in vivo, rat
- protocol.conditions: female, Sprague-Dawley, rat, whole blood, inhaled or intranasal, 10.8 mg/kg/day, SD rat blood, inhalation, 10.8 mg/kg/day, Day 14, Female
assay.readout: half-life (min)
Answer format: numeric, min implied, no suffix.

Look up half-life for this compound: CCn1c(C(C)(C)Oc2ccc(F)cc2F)nc2cc(NC(=O)Cc3ccc(S(=O)(=O)CC)cc3)ccc21 306

====

- run.description: Drug concentrations on day-8 in CS-model mice after 7-day intranasal treatment
- Assay type: in vivo
- protocol.conditions: C57BL/6, mouse, BAL fluid, other: intranasal; CS exposed mice, day-8, intranasal 1 µg/animal; read-out: Total concentration BAL fluid
assay.readout: concentration at 1 h (nM)
Answer format: numeric, nM implied, no suffix.

Look up concentration at 1 h for this compound: CCn1c(C(C)(C)Oc2ccc(F)cc2F)nc2cc(NC(=O)Cc3ccc(S(=O)(=O)CC)cc3)ccc21 [PCCR-1] 25.7

====

- run.description: Toxicokinetics (blood), 14-day inhalation study in Sprague Dawley rats
- Format: in vivo, rat
- protocol.conditions: male, Sprague Dawley, rat, blood, inhaled or intranasal, 10.8 mg/kg/day, SD rat blood, inhalation, 10.8 mg/kg/day, Day 1, Male
assay.readout: half-life (h)
Answer format: numeric, h implied, no suffix.

Look up half-life for this molecule: CCn1c(C(C)(C)Oc2ccc(F)cc2F)nc2cc(NC(=O)Cc3ccc(S(=O)(=O)CC)cc3)ccc21 [PCCR-1] 6

====

- target.entity: Alpha 1A (Homo sapiens)
- Construct: Eurofins Cerep
- Sequence (P35348 whole entry): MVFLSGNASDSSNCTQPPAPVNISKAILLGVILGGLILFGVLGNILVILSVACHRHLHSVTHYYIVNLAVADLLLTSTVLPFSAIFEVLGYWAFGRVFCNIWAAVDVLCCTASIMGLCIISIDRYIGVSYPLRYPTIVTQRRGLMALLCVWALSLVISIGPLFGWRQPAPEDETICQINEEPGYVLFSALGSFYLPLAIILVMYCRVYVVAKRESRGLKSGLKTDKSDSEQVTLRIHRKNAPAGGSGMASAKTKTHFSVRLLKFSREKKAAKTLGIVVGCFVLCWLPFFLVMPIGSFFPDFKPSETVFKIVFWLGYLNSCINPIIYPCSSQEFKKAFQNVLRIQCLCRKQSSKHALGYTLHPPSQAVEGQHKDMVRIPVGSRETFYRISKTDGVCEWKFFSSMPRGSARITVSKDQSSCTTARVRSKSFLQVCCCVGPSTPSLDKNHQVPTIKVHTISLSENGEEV
- run.description: Cerep panel, Alpha 1A (antagonist)
- protocol.conditions: read-out: IC50 Alpha 1A (antg)
assay.readout: IC50 (nM)
Answer format: numeric, nM implied, no suffix.

Form entry - test system: Alpha 1A (Homo sapiens); read-out: IC50; molecule: CCn1c(C(C)(C)Oc2ccc(F)cc2F)nc2cc(NC(=O)Cc3ccc(S(=O)(=O)CC)cc3)ccc21 [PCCR-1] 190
